# credit: paper PMC9789325

target-under-test: ACE (Oryctolagus cuniculus, UniProt P12822)
Construct: the angiotensin-I-converting enzyme from rabbit lung (2 units/mg protein); purchased Sigma Chemical Co. (St. Louis, MO, USA); host or cells: rabbit lung (tissue-derived)
test: Effect of ACE on papain-generated peptides: hydrolysis of peptides by ACE followed by RP-HPLC
Assay type: in vitro ADME, rabbit
condition-context: rabbit, isolated ACE (angiotensin-converting enzyme) solution; incubation with ACE 37 °C, 3 h; read-out: Cleavage (%)
Residues, ends and D or L forms follow the SMILES beside them.
observable: metabolised at 3 h (%)
Record the value in %, omitting the unit from your answer.

CC[C@H](C)[C@H](NC(=O)CNC(=O)CN)C(=O)N[C@@H](Cc1ccccc1)C(=O)O [GGIF] (H-GGIF-OH; N-terminus and C-terminus assumed)	2

Let me check: CC[C@H](C)[C@H](NC(=O)CN)C(=O)N[C@@H](Cc1ccccc1)C(=O)N[C@@H](CCC(=O)O)C(=O)O [GIFE] (H-GIFE-OH; N-terminus and C-terminus assumed) , system ACE (Oryctolagus cuniculus, UniProt P12822), measured metabolised at 3 h is 0

* * *

Let's look at some compounds and their measured metabolised at 2 h.
target-under-test: ACE (Oryctolagus cuniculus)
Construct: the angiotensin-I-converting enzyme from rabbit lung (2 units/mg protein); purchased Sigma Chemical Co. (St. Louis, MO, USA); host or cells: rabbit lung (tissue-derived)
test: Effect of ACE on papain-generated peptides: hydrolysis of peptides by ACE followed by RP-HPLC
Format: in vitro ADME, rabbit
condition-context: rabbit, isolated ACE (angiotensin-converting enzyme) solution; incubation with ACE 37 °C, 2 h; read-out: Cleavage (%)
Residues, ends and D or L forms follow the SMILES beside them.
# value in %; strip the unit string

CC[C@H](C)[C@H](NC(=O)CN)C(=O)N[C@@H](Cc1ccccc1)C(=O)N[C@@H](CCC(=O)O)C(=O)O [GIFE] (H-GIFE-OH; N-terminus and C-terminus assumed)	0

Alright, here's another compound for you.
metabolised at 2 h for CC[C@H](C)[C@H](NC(=O)CNC(=O)CN)C(=O)N[C@@H](Cc1ccccc1)C(=O)O [GGIF] (H-GGIF-OH; N-terminus and C-terminus assumed) is 1

* * *

target-under-test: ACE (Oryctolagus cuniculus)
Construct: the angiotensin-I-converting enzyme from rabbit lung (2 units/mg protein); purchased Sigma Chemical Co. (St. Louis, MO, USA); host or cells: rabbit lung (tissue-derived)
Sequence (P12822 34-1310): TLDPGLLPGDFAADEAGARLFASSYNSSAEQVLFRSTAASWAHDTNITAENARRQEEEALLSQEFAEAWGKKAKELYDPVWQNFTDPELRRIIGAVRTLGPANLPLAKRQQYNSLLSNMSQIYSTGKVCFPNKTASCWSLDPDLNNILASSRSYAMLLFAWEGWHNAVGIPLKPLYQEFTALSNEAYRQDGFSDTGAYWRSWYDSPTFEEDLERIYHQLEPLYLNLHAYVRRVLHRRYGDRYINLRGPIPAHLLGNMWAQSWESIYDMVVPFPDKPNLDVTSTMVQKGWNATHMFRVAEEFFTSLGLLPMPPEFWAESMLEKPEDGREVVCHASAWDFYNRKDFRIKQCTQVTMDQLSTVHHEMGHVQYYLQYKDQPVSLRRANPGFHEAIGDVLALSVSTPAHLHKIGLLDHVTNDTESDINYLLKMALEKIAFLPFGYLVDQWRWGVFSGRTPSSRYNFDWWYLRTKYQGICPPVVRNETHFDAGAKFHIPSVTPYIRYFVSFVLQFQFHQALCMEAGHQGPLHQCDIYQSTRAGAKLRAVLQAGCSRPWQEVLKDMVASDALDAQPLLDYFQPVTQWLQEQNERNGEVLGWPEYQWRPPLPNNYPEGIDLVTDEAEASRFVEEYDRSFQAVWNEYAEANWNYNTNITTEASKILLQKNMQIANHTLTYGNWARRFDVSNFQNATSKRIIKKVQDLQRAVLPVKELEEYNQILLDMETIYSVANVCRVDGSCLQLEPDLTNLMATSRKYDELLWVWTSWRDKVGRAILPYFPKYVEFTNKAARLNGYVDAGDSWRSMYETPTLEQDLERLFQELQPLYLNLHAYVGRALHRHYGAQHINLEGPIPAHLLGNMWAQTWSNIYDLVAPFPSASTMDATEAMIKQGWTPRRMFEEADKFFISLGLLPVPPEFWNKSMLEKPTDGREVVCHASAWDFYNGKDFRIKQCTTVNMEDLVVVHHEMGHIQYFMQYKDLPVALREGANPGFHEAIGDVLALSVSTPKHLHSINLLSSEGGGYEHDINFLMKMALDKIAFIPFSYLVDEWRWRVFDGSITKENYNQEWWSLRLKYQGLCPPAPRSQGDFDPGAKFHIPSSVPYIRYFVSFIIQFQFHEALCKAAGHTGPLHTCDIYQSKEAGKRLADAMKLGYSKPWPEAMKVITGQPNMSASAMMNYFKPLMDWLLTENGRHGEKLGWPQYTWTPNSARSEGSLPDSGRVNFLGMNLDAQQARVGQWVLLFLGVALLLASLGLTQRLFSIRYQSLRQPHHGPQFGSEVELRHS
test: Effect of ACE on papain-generated peptides: hydrolysis of peptides by ACE followed by RP-HPLC
Format: in vitro ADME, rabbit
condition-context: rabbit, isolated ACE (angiotensin-converting enzyme) solution; incubation with ACE 37 °C, 2 h; read-out: Cleavage (%)
No end group written: not given here.
observable: metabolised at 2 h (%)
Supply the numeric figure in %, leaving out any unit text.

The reported value for YGIKVGYAIP [YGIKVGYAIP] in terms of metabolised at 2 h is 95
